Values compiled from patent US8765944B2.

Hi there, I'd appreciate the recorded EC50 for every entry that follows.
System: HCV pseudoparticles
experimentalProtocol: HCV pseudoparticle infection assay (luciferase reporter, Huh7 cells)
Format: cell-based, HCV (genotype 1b E1 and E2 envelope)
conditionLabel: Hepatitis C virus, genotype 1b, Huh-7, 48 h, HCV pseudoparticles (genotype 1b), luciferase activity 2 days after infection, class

Requested read-out: EC50. Entry: NC(=O)c1ccc(Nc2nc(NC3(C(=O)NS(=O)(=O)C4CC4)CC3)nc(OCC(F)(F)F)n2)cc1 1000 to 5000 nM

Can you handle O=C(CCCCNC(=O)c1ccc(Nc2nc(NC3(c4ccc(Cl)cc4)CC3)nc(OCC(F)(F)F)n2)cc1)NS(=O)(=O)C1CCC1 next? 0.5 to 100 nM

Would you kindly repeat that for O=C(NS(=O)(=O)CCCN1CCCC1)c1ccc(Nc2nc(NC3(c4ccc(Cl)cc4)CC3)nc(N3CCCC3)n2)cc1 ? 1000 to 5000 nM

Now the molecule CCS(=O)(=O)NC(=O)CCCCNC(=O)c1ccc(Nc2nc(NC3(c4ccc(Cl)cc4)CC3)nc(OCC(F)(F)F)n2)cc1 0.5 to 100 nM

Follow-up item: CS(=O)(=O)NC(=O)C1(CNC(=O)c2ccc(Nc3nc(NC4(c5ccc(Cl)cc5)CC4)nc(OCC(F)(F)F)n3)cc2)CC1 0.5 to 100 nM

Ok, now C=C[C@@H]1C[C@]1(NC(=O)C1(CNC(=O)c2ccc(Nc3nc(NC4(c5ccc(Cl)cc5)CC4)nc(OCC(F)(F)F)n3)cc2)CC1)C(=O)NS(=O)(=O)C(C)(C)C 0.5 to 100 nM

Continue with CCC1(S(=O)(=O)NC(=O)C(C)(C)CNC(=O)c2ccc(Nc3nc(NC4(c5ccc(Cl)cc5)CC4)nc(OCC(F)(F)F)n3)cc2)CC1 0.5 to 100 nM

What about this molecule? C=CS(=O)(=O)NC(=O)c1ccc(Nc2nc(NC3(c4ccc(Cl)cc4)CC3)nc(OCC(F)(F)F)n2)cc1 0.5 to 100 nM

Now the molecule O=C(NS(=O)(=O)C1(CN2CCC2)CC1)c1ccc(Nc2nc(NC3(c4ccc(Cl)cc4)CC3)nc(OCC(F)(F)F)n2)cc1 0.5 to 100 nM

Moving on to O=C(NS(=O)(=O)C1(Cc2ccccc2F)CC1)c1ccc(Nc2nc(NC3(c4ccc(Cl)cc4)CC3)nc(OCC(F)(F)F)n2)cc1 0.5 to 100 nM

What do you have for CN(C)S(=O)(=O)NC(=O)[C@@]1(NC(=O)CCCNC(=O)c2ccc(Nc3nc(NC4(c5ccc(Cl)cc5)CC4)nc(OCC(F)(F)F)n3)cc2)C[C@H]1C1CC1 ? 0.5 to 100 nM

Cool, now O=C(CCCNC(=O)c1ccc(Nc2nc(NC3(c4ccc(Cl)cc4)CC3)nc(OCC(F)(F)F)n2)cc1)N[C@]1(C(=O)NS(=O)(=O)C2(C(F)F)CC2)C[C@H]1C1CC1 0.5 to 100 nM
